// provenance: patent US20240270821A1

target: hGLP-1R (Homo sapiens, UniProt P43220); experiment: Functional cAMP activity in the presence of 1% HSA; type: cell-based; conditions: HEK-293 clonal cell line, in the presence of 1% HSA; geometric mean of relative EC50; read-out: cAMP Rel EC50, hGLP-1R
Sequence (P43220 24-463): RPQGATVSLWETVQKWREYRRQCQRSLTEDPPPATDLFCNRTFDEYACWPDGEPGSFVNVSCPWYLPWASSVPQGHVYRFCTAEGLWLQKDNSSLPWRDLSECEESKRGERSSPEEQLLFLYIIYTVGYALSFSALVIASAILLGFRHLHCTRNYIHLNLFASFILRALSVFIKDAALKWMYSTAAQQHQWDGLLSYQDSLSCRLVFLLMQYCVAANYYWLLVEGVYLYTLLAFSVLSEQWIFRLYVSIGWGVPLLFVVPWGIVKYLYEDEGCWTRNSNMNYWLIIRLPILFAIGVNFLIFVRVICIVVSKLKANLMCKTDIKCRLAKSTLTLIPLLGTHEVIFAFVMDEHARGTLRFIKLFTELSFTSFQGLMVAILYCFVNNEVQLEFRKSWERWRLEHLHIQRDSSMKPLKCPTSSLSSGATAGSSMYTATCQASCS
Starred links: 1 amine or outer side, 2 acyl side, 3 side chain; linkers in the order of their positions; H or OH if unused. Non-standard residues stand in square brackets, D forms with d. Groups on a side chain read outwards from the residue. No end group written: not given here. *: point of attachment. C18 diacid = O=C(O)CCCCCCCCCCCCCCCCC(=O)*; γGlu = O=C(O)[C@H](CCC(=O)[*:2])N[*:1]; αMe4Pal = C[C@](N)(Cc1ccncc1)C(=O)O; αMeY = C[C@](N)(Cc1ccc(O)cc1)C(=O)O; 4Pal = N[C@@H](Cc1ccncc1)C(=O)O; αMeL = CC(C)C[C@](C)(N)C(=O)O; Orn = NCCC[C@H](N)C(=O)O; Aib = CC(C)(N)C(=O)O
Listed next: entries and their corresponding EC50.
Just the number in nM, nothing appended.

Solved cases below.
>>> test_result("Y[Aib]QGTFTSD[4Pal]SQ[αMeL]LDKK([γGlu-γGlu-C18 diacid])AQ[αMe4Pal]AFIE[αMe4Pal]LIE[Aib]GPSSGAPPPSGEE-NH2 [Example 1121]")
165
>>> test_result("H-Y[Aib]QGTFTSD[4Pal]S[Orn][αMeL]LD[Orn]K([γGlu-γGlu-C18 diacid])AQ[αMe4Pal]EFIE[αMeY]LLAGGPSSGAPPPSGSEE-NH2 [Example 996]")
4810
>>> test_result("H-Y[Aib]QGTFTSD[4Pal]SQ[αMeL]LDKK([γGlu-γGlu-C18 diacid])AQ[αMe4Pal]AFIEYLIE[Aib]GPSSGAPPPSGTGE-NH2 [Example 1127]")
234
>>> test_result("H-Y[Aib]QGTFTSDFS[Orn][αMeL]LD[Orn]K([γGlu-γGlu-C18 diacid])AQ[Aib]AFIE[αMeY]LLEGGPSSGAPPPGGSEE-NH2 [Example 1049]")
780

Pending substance:
Prompt: Entry under review: H-Y[Aib]QGTFTSDFS[Orn][αMeL]LD[Orn]K([γGlu-γGlu-C18 diacid])AQ[Aib]AFIEYLLEGGPSSGAPPPGGSEE-NH2 [Example 1048] . Reported EC50?
Completion: 1900
